Reported SI: selectivity index for CB2 values for a set of molecules
target: UniProt:P34972; test: [3H]CP-55,940 radioligand competition binding, CB2; design: host or cells: cell membrane preparations; details: Ki(CB1)/Ki(CB2) ratio
Sequence (P34972 whole entry): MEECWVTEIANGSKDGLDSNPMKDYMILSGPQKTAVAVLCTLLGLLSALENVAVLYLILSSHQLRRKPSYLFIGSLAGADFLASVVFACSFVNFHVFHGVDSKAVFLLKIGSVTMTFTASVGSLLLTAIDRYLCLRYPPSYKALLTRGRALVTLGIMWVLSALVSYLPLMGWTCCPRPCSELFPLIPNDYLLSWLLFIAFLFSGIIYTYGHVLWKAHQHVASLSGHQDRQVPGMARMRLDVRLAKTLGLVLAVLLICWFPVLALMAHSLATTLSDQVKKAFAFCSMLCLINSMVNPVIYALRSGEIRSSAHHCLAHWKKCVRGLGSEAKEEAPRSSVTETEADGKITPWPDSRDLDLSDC
observable: SI: selectivity index for CB2

>>> observedmeasurement("COc1ccc(C(NC(=O)Cc2ccc(Cl)cc2)NC(=O)Cc2ccc(Cl)cc2)cc1")
">65"
>>> observedmeasurement("CCN(CC)c1ccc(CN(C23CC4CC(CC(C4)C2)C3)S(=O)(=O)c2ccc(Cl)cc2)cc1")
11
>>> observedmeasurement("O=C(Cc1ccc(Cl)cc1)NC(NC(=O)Cc1ccc(Cl)cc1)c1ccc(C(F)(F)F)cc1")
">198"
>>> observedmeasurement("CCN(CC)c1ccc(C(NC(=O)c2ccccc2)NC(=O)c2ccccc2)cc1")
">29"
>>> observedmeasurement("CCN(CC)c1ccc(CN(c2ccc(C)cc2)S(=O)(=O)c2ccccc2)cc1")
151
>>> observedmeasurement("O=C(Cc1ccccc1)NC(NC(=O)Cc1ccccc1)c1ccc(C(F)(F)F)cc1")
">34"
>>> observedmeasurement("COc1ccc(C(NC(=O)Cc2ccccc2)NC(=O)Cc2ccccc2)cc1")
">26"
>>> observedmeasurement("CCN(CC)c1ccc(C(NC(=O)Cc2ccccc2)NC(=O)Cc2ccccc2)cc1")
">313"
